B1: PTPRD (parent)
chain: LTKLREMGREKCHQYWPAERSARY

- Variants of: B1
- assay_remarks: protein stability index of a GFP-peptide fusion (GPS, HEK-293T) (PSI 1-6); higher = more stable;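 also: lentivirally expressed fusions sorted by FACS into six bins by GFP to DsRed ratio, PSI derived from sequencing read proportions per bin multiplied by bin number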
- setup_conditions: c terminus: a fixed tail appended
experimental_readout: protein stability index
Answers are plain numbers.

# monomer_sequence, reported_result
rows = [
    ("LTKLREMGREKCHQYWPAERSARP [Y24P]", 2.5),
    ("LTKLREMGREKCHQSWPAERSARY [Y15S]", 2.92),
    ("LTKLREMGTEKCHQYWPAERSARY [R9T]", 2.65),
    ("LTKLREMGREKCHQYWPAERSRRY [A22R]", 2.42),
    ("LTKLREMGREKCHQYSPAERSARY [W16S]", 2.84),
]

For each of the variants below, state protein stability index.
1. LTKLREMGREKCHQYWPEERSARY [A18E]
2. ETKLREMGREKCHQYWPAERSARY [L1E]

1. 2.73
2. 3.12
